- system-tested: dopamine transporter (DAT) (Rattus norvegicus)
- Sequence (P23977 whole entry): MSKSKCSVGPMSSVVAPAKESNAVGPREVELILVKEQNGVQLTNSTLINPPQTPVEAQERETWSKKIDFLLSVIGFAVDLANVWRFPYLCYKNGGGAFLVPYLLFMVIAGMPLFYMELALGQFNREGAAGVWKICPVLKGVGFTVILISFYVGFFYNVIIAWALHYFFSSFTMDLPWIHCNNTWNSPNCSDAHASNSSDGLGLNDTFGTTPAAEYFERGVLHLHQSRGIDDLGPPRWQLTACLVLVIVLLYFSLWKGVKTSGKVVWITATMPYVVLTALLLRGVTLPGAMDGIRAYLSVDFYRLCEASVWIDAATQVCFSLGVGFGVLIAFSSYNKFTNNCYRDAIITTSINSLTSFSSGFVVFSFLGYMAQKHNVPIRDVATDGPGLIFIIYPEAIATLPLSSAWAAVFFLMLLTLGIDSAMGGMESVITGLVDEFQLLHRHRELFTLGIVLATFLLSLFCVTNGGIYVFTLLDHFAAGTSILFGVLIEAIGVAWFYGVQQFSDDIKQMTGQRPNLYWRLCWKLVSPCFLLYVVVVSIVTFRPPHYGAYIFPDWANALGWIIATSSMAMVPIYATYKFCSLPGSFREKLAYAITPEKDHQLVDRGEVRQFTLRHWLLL
measured-parameter: pIC50
Scale: negative log10 of molar concentration, which is what pIC50 denotes.

Request: # lookup: pIC50 of c1ccc(C(c2ccccc2)C2CCCCN2)cc1 (stereo not shown)
Response: 6.25
